# tgt: EPHB1 (UniProt P54762)
# Sequence (P54762 whole entry, looked up): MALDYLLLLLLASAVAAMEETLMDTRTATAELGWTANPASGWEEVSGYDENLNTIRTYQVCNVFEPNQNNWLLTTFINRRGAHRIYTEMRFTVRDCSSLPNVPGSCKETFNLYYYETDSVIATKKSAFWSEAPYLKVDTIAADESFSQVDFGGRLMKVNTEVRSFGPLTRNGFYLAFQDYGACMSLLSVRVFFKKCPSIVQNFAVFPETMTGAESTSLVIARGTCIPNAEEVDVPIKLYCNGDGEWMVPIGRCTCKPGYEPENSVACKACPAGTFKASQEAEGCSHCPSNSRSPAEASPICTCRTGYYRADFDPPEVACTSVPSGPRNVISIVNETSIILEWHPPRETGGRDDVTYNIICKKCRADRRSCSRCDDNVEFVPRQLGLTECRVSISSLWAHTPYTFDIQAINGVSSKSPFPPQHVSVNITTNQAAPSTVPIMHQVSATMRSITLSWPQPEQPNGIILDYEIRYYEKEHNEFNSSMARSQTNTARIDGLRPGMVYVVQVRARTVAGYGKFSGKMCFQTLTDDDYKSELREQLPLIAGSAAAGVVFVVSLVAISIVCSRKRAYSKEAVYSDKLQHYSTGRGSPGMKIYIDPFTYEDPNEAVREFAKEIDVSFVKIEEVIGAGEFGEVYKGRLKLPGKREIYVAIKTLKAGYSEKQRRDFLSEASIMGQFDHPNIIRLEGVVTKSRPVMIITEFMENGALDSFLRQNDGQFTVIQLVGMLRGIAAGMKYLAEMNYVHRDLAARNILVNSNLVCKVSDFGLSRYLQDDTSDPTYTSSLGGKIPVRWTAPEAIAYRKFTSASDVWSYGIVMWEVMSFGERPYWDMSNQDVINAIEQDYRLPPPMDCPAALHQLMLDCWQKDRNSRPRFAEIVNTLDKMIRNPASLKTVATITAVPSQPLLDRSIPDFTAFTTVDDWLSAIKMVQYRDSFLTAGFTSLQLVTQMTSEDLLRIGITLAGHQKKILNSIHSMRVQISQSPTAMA
# testMethodNotes: phosphorylation enrichment, bacterial display (enrichment ratio); higher = better substrate or ligand; peptides without Tyr show the background;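 also: 11-residue human phosphosite peptides and single-mutation variants displayed on the E. coli surface, counted by deep sequencing, each peptide's frequency after selection divided by its frequency in the unselected input library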;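 also: frequency after pTyr selection over input frequency; kinase dosed for 20-30% of maximal phosphorylation in three min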
Binary classification by phosphorylation enrichment, with 0.6 as an inclusive lower bound for Met; all other cases are Not met.

# input Check if phosphorylation enrichment >= 0.6 (inclusive). Item: GGKYSYLKVGH [GRM3_Y480]
# output Not met

# input Check if phosphorylation enrichment >= 0.6 (inclusive). Item: QLAPQYTFAQG [FLNA_Y1761_YF]
# output Not met

# input Check if phosphorylation enrichment >= 0.6 (inclusive). Item: PFTDPYFDFEI [ZC3H18_Y371_A368T_YF]
# output Met

# input Check if phosphorylation enrichment >= 0.6 (inclusive). Item: PFDAEYGGGGG [AKR1B10_Y316_N313D]
# output Met

# input Check if phosphorylation enrichment >= 0.6 (inclusive). Item: DPHKIFEFVNS [IRF3_Y107_Y107F]
# output Not met

# input Check if phosphorylation enrichment >= 0.6 (inclusive). Item: NSIGNYFKPWF [DHCR24_Y299_YF]
# output Met

# input Check if phosphorylation enrichment >= 0.6 (inclusive). Item: DLDLTSIYPNI [PTEN_Y27_Y27S]
# output Not met

# input Check if phosphorylation enrichment >= 0.6 (inclusive). Item: LYSINYLHFGE [KDM4C_Y201]
# output Met

# input Check if phosphorylation enrichment >= 0.6 (inclusive). Item: TFRPPYYHRNC [HGD_Y333]
# output Not met

# input Check if phosphorylation enrichment >= 0.6 (inclusive). Item: RFLERYIFNPE [HLA-DPB1_Y57_R61P_YF]
# output Met

# input Check if phosphorylation enrichment >= 0.6 (inclusive). Item: KINKMYSDRAM
# output Not met

# input Check if phosphorylation enrichment >= 0.6 (inclusive). Item: QELRRYLKSGI [MICA_Y194_V199I]
# output Not met

# input Check if phosphorylation enrichment >= 0.6 (inclusive). Item: SSDPDYRAAVD [GLB1_Y154_L155R]
# output Not met

# input Check if phosphorylation enrichment >= 0.6 (inclusive). Item: LGRGKYSEVFE [CSNK2A1_Y50]
# output Not met

# input Check if phosphorylation enrichment >= 0.6 (inclusive). Item: DRLANYLEKVR [KRT40_Y103_S102N]
# output Not met

# input Check if phosphorylation enrichment >= 0.6 (inclusive). Item: GLAELYEFKKK [CKAP5_Y1854_YF]
# output Not met

# input Check if phosphorylation enrichment >= 0.6 (inclusive). Item: KIDAKYKKKIE [WDR19_Y1230]
# output Not met

# input Check if phosphorylation enrichment >= 0.6 (inclusive). Item: QRRNVYYYSYL [PTEN_Y176_Y174N]
# output Met

# input Check if phosphorylation enrichment >= 0.6 (inclusive). Item: SVVVPFEPPEV [TP53_Y220_Y220F]
# output Not met

# input Check if phosphorylation enrichment >= 0.6 (inclusive). Item: PYSSPYENSLI [EPOR_Y489_N487S]
# output Not met

# input Check if phosphorylation enrichment >= 0.6 (inclusive). Item: LSVEIHDRREF [ITGB7_Y753_Y753H_YF]
# output Met

# input Check if phosphorylation enrichment >= 0.6 (inclusive). Item: VQDPAYLRDID [OPRK1_Y369]
# output Not met

# input Check if phosphorylation enrichment >= 0.6 (inclusive). Item: QHNPEYVQQAS [LRRC7_Y1058]
# output Not met

# input Check if phosphorylation enrichment >= 0.6 (inclusive). Item: FFNSEYGELSE [FLT4_Y1337_YF]
# output Not met

# input Check if phosphorylation enrichment >= 0.6 (inclusive). Item: IGMFSYVMLAS [GGCX_Y301]
# output Met

# input Check if phosphorylation enrichment >= 0.6 (inclusive). Item: EQKKYYNAVKK [SCN5A_Y1495_M1498V]
# output Not met

# input Check if phosphorylation enrichment >= 0.6 (inclusive). Item: SDYYAYSPVRE [H6PD_Y449]
# output Met

# input Check if phosphorylation enrichment >= 0.6 (inclusive). Item: PVEAAYQKVVA [HBB_Y131_Q128E]
# output Not met

# input Check if phosphorylation enrichment >= 0.6 (inclusive). Item: YSMGCYEFSLG [HMGCL_Y198_I200F]
# output Met

# input Check if phosphorylation enrichment >= 0.6 (inclusive). Item: LTERGYSFVTT [ACTA1_Y200]
# output Met

# input Check if phosphorylation enrichment >= 0.6 (inclusive). Item: PPKFFYTRKLL [CYBB_Y41]
# output Not met

# input Check if phosphorylation enrichment >= 0.6 (inclusive). Item: ESMLRYDVYGG [STOX1_Y607_E608D]
# output Met

# input Check if phosphorylation enrichment >= 0.6 (inclusive). Item: QRRNVYFFSFL [PTEN_Y176_Y174N_YF]
# output Met

# input Check if phosphorylation enrichment >= 0.6 (inclusive). Item: FGPPQYNMQFS [ERBB2IP_Y977_I979M_YF]
# output Not met

# input Check if phosphorylation enrichment >= 0.6 (inclusive). Item: PLDGEYFTLRI [TP53_Y327_Q331R]
# output Met

# input Check if phosphorylation enrichment >= 0.6 (inclusive). Item: FQLENYCNGGG [INS_Y108_YF]
# output Met

# input Check if phosphorylation enrichment >= 0.6 (inclusive). Item: PSRKDYETYQP [CTNND2_Y1154]
# output Met

# input Check if phosphorylation enrichment >= 0.6 (inclusive). Item: HKGASYAFRLS [PTPRD_Y891_V892A]
# output Met

# input Check if phosphorylation enrichment >= 0.6 (inclusive). Item: ERMKVYVPIGF [EPHX1_Y393_T396I]
# output Met

# input Check if phosphorylation enrichment >= 0.6 (inclusive). Item: PDMHSYVVRYN [GRIN2D_Y732_M733V]
# output Met

# input Check if phosphorylation enrichment >= 0.6 (inclusive). Item: RESFKYFPSSL [CXXC1_Y218_YF]
# output Not met

# input Check if phosphorylation enrichment >= 0.6 (inclusive). Item: DRSSLYLVAGP [KIAA1614_Y1083_N1078D]
# output Met

# input Check if phosphorylation enrichment >= 0.6 (inclusive). Item: GADAIYDHVNE [UQCR10_Y44_I47V]
# output Met

# input Check if phosphorylation enrichment >= 0.6 (inclusive). Item: DKATEYIQYVR [MAX_Y70_M74V]
# output Not met

# input Check if phosphorylation enrichment >= 0.6 (inclusive). Item: ISRLKYPVSQQ [BTK_Y375]
# output Not met

# input Check if phosphorylation enrichment >= 0.6 (inclusive). Item: AAETTYDKILK [GDNF_Y156]
# output Not met

# input Check if phosphorylation enrichment >= 0.6 (inclusive). Item: TLQVMYGCDVG [HLA-B_Y123_S121V]
# output Not met

# input Check if phosphorylation enrichment >= 0.6 (inclusive). Item: VYYYSYLLKNH [PTEN_Y180]
# output Met

# input Check if phosphorylation enrichment >= 0.6 (inclusive). Item: KGTAGYTTVAV [RET_Y752_R749T]
# output Not met

# input Check if phosphorylation enrichment >= 0.6 (inclusive). Item: YPKAHYHWLVL [APTX_Y214_R213H]
# output Not met
